Just for reference, paper PMC6471177 is where these values come from.

protocol_details: in vivo
experimental_setup: male, Sprague-Dawley, rat, in vivo, po, 20 mg/kg, AUClast
measured_attribute: AUC(0-t)
Give your result as the value with the unit written after it.

Return value of AUC(0-t) for input CC(=O)O[C@@]12CO[C@@H]1C[C@H](O)[C@@]1(C)C(=O)[C@H](O)C3=C(C)[C@@H](OC(=O)[C@H](O)[C@@H](NC(=O)OC(C)(C)C)c4ccccc4)C[C@@](O)([C@@H](OC(=O)c4ccccc4)[C@H]21)C3(C)C , no commentary.
82.8 ng·h/mL

----------
protocol_details: Pharmacokinetics of intravenous docetaxel with oral LC478 in rats
Format: in vivo, Sprague–Dawley rats
experimental_setup: male, Sprague-Dawley, rat, plasma, iv, 20 mg/kg, rats, docetaxel 20 mg/kg intravenous, with 0 mg/kg LC478
measured_attribute: clearance (mL/min/kg)
# value in mL/min/kg; strip the unit string

Look up and state reported clearance for CC(=O)O[C@@]12CO[C@@H]1C[C@H](O)[C@@]1(C)C(=O)[C@H](O)C3=C(C)[C@@H](OC(=O)[C@H](O)[C@@H](NC(=O)OC(C)(C)C)c4ccccc4)C[C@@](O)([C@@H](OC(=O)c4ccccc4)[C@H]21)C3(C)C
78.4

----------
protocol_details: in vivo
experimental_setup: male, Sprague-Dawley, rat, in vivo, po, 20 mg/kg, Vz/F
measured_attribute: Vd/F (L/kg)
Number in L/kg, nothing else.

Tell us which Vd/F value is on record for CC(=O)O[C@@]12CO[C@@H]1C[C@H](O)[C@@]1(C)C(=O)[C@H](O)C3=C(C)[C@@H](OC(=O)[C@H](O)[C@@H](NC(=O)OC(C)(C)C)c4ccccc4)C[C@@](O)([C@@H](OC(=O)c4ccccc4)[C@H]21)C3(C)C
670

----------
protocol_details: Pharmacokinetics of intravenous docetaxel with oral LC478 in rats
Type: in vivo, Sprague–Dawley rats
experimental_setup: male, Sprague-Dawley, rat, plasma, iv, 20 mg/kg, rats, docetaxel 20 mg/kg intravenous, with 30 mg/kg oral LC478
measured_attribute: clearance (mL/min/kg)
The response must be a number in mL/min/kg with no trailing unit.

Identify clearance associated with the compound CC(=O)O[C@@]12CO[C@@H]1C[C@H](O)[C@@]1(C)C(=O)[C@H](O)C3=C(C)[C@@H](OC(=O)[C@H](O)[C@@H](NC(=O)OC(C)(C)C)c4ccccc4)C[C@@](O)([C@@H](OC(=O)c4ccccc4)[C@H]21)C3(C)C
67.9

----------
protocol_details: Pharmacokinetics of intravenous docetaxel with oral LC478 in rats
Assay type: in vivo, Sprague–Dawley rats
experimental_setup: male, Sprague-Dawley, rat, plasma, iv, 20 mg/kg, rats, docetaxel 20 mg/kg intravenous, with 30 mg/kg oral LC478
measured_attribute: CL renal
Answer with the value and then the unit.

Note down CL renal recorded for CC(=O)O[C@@]12CO[C@@H]1C[C@H](O)[C@@]1(C)C(=O)[C@H](O)C3=C(C)[C@@H](OC(=O)[C@H](O)[C@@H](NC(=O)OC(C)(C)C)c4ccccc4)C[C@@](O)([C@@H](OC(=O)c4ccccc4)[C@H]21)C3(C)C [docetaxel]
1.06 mL/min/kg

----------
protocol_details: Pharmacokinetics of intravenous docetaxel with oral LC478 in rats
Format: in vivo, Sprague–Dawley rats
experimental_setup: male, Sprague-Dawley, rat, plasma, iv, 20 mg/kg, rats, docetaxel 20 mg/kg intravenous, with 100 mg/kg oral LC478
measured_attribute: MRT (h)
Entry rule: numbers only, all in h.

// fetch MRT given entry CC(=O)O[C@@]12CO[C@@H]1C[C@H](O)[C@@]1(C)C(=O)[C@H](O)C3=C(C)[C@@H](OC(=O)[C@H](O)[C@@H](NC(=O)OC(C)(C)C)c4ccccc4)C[C@@](O)([C@@H](OC(=O)c4ccccc4)[C@H]21)C3(C)C
1.12

----------
protocol_details: Pharmacokinetics of intravenous docetaxel with oral LC478 in rats
Type: in vivo, Sprague–Dawley rats
experimental_setup: male, Sprague-Dawley, rat, plasma, iv, 20 mg/kg, rats, docetaxel 20 mg/kg intravenous, with 30 mg/kg oral LC478; read-out: Terminal half-life
measured_attribute: half-life (h)
Enter your answer as a number in h; do not include the unit.

Give the reported half-life for this molecule. CC(=O)O[C@@]12CO[C@@H]1C[C@H](O)[C@@]1(C)C(=O)[C@H](O)C3=C(C)[C@@H](OC(=O)[C@H](O)[C@@H](NC(=O)OC(C)(C)C)c4ccccc4)C[C@@](O)([C@@H](OC(=O)c4ccccc4)[C@H]21)C3(C)C
2.4

----------
protocol_details: Pharmacokinetics of intravenous docetaxel with oral LC478 in rats
Type: in vivo, Sprague–Dawley rats
experimental_setup: male, Sprague-Dawley, rat, plasma, iv, 20 mg/kg, rats, docetaxel 20 mg/kg intravenous, with 100 mg/kg oral LC478
measured_attribute: AUC(0-t) (ng·h/mL)
Quick reminder: number only, in ng·h/mL, skip the unit.

Answer with the recorded AUC(0-t) of CC(=O)O[C@@]12CO[C@@H]1C[C@H](O)[C@@]1(C)C(=O)[C@H](O)C3=C(C)[C@@H](OC(=O)[C@H](O)[C@@H](NC(=O)OC(C)(C)C)c4ccccc4)C[C@@](O)([C@@H](OC(=O)c4ccccc4)[C@H]21)C3(C)C only.
4470

----------
protocol_details: Pharmacokinetics of intravenous docetaxel with oral LC478 in rats
Type: in vivo, Sprague–Dawley rats
experimental_setup: male, Sprague-Dawley, rat, plasma, iv, 20 mg/kg, rats, docetaxel 20 mg/kg intravenous, with 30 mg/kg oral LC478
measured_attribute: AUC(0-inf) (ng·h/mL)
The reply should be a number in ng·h/mL, with the unit left off.

Supply measured AUC(0-inf) of CC(=O)O[C@@]12CO[C@@H]1C[C@H](O)[C@@]1(C)C(=O)[C@H](O)C3=C(C)[C@@H](OC(=O)[C@H](O)[C@@H](NC(=O)OC(C)(C)C)c4ccccc4)C[C@@](O)([C@@H](OC(=O)c4ccccc4)[C@H]21)C3(C)C in your reply.
5050

----------
protocol_details: in vivo
experimental_setup: male, Sprague-Dawley, rat, in vivo, po, 20 mg/kg, CLR
measured_attribute: CL renal

Return the recorded CL renal value; entry: CC(=O)O[C@@]12CO[C@@H]1C[C@H](O)[C@@]1(C)C(=O)[C@H](O)C3=C(C)[C@@H](OC(=O)[C@H](O)[C@@H](NC(=O)OC(C)(C)C)c4ccccc4)C[C@@](O)([C@@H](OC(=O)c4ccccc4)[C@H]21)C3(C)C
3.5 mL/min/kg

----------
protocol_details: Pharmacokinetics of intravenous docetaxel with oral LC478 in rats
Assay type: in vivo, Sprague–Dawley rats
experimental_setup: male, Sprague-Dawley, rat, plasma, iv, 20 mg/kg, rats, docetaxel 20 mg/kg intravenous, with 0 mg/kg LC478
measured_attribute: MRT (min)
Write the value in min as a bare number.

Please report the measured MRT for CC(=O)O[C@@]12CO[C@@H]1C[C@H](O)[C@@]1(C)C(=O)[C@H](O)C3=C(C)[C@@H](OC(=O)[C@H](O)[C@@H](NC(=O)OC(C)(C)C)c4ccccc4)C[C@@](O)([C@@H](OC(=O)c4ccccc4)[C@H]21)C3(C)C [docetaxel]
57.9

----------
protocol_details: Pharmacokinetics of intravenous docetaxel with oral LC478 in rats
Type: in vivo, Sprague–Dawley rats
experimental_setup: male, Sprague-Dawley, rat, plasma, iv, 20 mg/kg, rats, docetaxel 20 mg/kg intravenous, with 30 mg/kg oral LC478
Protocol: For the intravenous study, rats were divided into three groups according to LC478 doses (0, 30, and 100 mg/kg LC478, respectively). […] To prevent blood clotting, 0.3 mL of 0.9% NaCl-injectable solution containing heparin (20 U/mL) was flushed into each cannula immediately after each blood sampling. […]
measured_attribute: AUC(0-t)
Could you write the number and then its unit?

Indicate the recorded AUC(0-t) value for this compound: CC(=O)O[C@@]12CO[C@@H]1C[C@H](O)[C@@]1(C)C(=O)[C@H](O)C3=C(C)[C@@H](OC(=O)[C@H](O)[C@@H](NC(=O)OC(C)(C)C)c4ccccc4)C[C@@](O)([C@@H](OC(=O)c4ccccc4)[C@H]21)C3(C)C
4830 ng·h/mL

----------
assay_system: P-gp (Homo sapiens)
Construct: They were allowed to grow to confluence for 5 days to obtain higher expressions of P-gp; endogenous in cells
Sequence (P08183 whole entry): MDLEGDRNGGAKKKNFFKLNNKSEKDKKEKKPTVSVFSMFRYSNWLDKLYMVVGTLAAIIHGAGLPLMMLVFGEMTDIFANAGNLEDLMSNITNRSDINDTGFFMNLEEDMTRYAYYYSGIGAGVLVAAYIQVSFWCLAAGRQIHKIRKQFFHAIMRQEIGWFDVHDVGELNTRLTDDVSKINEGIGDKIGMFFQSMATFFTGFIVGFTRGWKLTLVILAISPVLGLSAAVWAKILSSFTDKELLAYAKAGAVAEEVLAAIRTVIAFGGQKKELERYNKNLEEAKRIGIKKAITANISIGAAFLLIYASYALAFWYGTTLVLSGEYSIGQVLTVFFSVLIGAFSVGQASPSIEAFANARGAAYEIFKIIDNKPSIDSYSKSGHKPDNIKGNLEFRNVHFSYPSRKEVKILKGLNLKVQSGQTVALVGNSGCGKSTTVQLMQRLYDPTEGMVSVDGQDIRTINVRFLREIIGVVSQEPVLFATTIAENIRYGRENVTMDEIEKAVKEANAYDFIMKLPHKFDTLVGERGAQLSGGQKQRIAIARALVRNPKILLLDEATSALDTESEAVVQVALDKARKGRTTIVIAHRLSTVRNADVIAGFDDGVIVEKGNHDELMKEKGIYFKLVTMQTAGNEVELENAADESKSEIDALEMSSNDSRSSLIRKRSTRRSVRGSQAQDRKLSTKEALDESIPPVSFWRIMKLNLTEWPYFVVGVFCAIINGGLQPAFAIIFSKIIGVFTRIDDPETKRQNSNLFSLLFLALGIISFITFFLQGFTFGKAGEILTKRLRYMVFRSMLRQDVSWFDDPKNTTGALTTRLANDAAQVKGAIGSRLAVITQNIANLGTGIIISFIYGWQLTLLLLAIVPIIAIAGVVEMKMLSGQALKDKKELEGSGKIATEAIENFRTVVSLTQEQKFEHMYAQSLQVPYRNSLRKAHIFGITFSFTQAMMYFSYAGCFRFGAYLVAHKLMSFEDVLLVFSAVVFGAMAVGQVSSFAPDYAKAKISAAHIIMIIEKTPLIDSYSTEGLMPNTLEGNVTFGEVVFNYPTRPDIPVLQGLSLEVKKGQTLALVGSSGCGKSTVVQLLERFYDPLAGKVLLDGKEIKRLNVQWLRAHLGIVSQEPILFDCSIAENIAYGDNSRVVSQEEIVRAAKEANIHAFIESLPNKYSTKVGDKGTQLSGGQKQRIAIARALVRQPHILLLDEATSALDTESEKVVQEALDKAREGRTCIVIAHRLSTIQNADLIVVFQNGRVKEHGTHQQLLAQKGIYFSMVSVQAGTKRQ
protocol_details: Intracellular accumulation of docetaxel in Caco-2 cells (P-gp inhibition)
measured_attribute: IC50 (nM)
Give just the numeric value; nM need not be written.

Provide only the value of recorded IC50 for COC(=O)c1cccc(NC(=O)COc2ccc(C34CC5CC(CC(C(=O)N6CCN(Cc7ccc(C(F)(F)F)cc7)CC6)(C5)C3)C4)cc2)c1 [LC478]
601

----------
protocol_details: MTT cell viability assay in Caco-2 cells
Format: cell-based
experimental_setup: human; Caco-2 cells, 0.001 to 100 µM, 24 h, MTT
measured_attribute: viability at 24 h

Check the records and state viability at 24 h for COC(=O)c1cccc(NC(=O)COc2ccc(C34CC5CC(CC(C(=O)N6CCN(Cc7ccc(C(F)(F)F)cc7)CC6)(C5)C3)C4)cc2)c1
97 to 100%
